experiment: NCI Yeast Anticancer Drug Screen. Data for the rad50 strain (AID 155);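 further: 0% = growth of vehicle-only cultures of the same strain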; details: S. cerevisiae rad50 strain growth inhibition; at 50.0 µM
About 79,000 compounds went through this panel and 15% of them were active in at least one assay; those are over-represented in the sample as a whole. Active and inactive are the calls of the source. No stated cut-off is given here; in the data, active means growth inhibition above about 70%; inactive means the rest.
I would appreciate it if you answered using one of these outcomes: true (1) for active, false (0) for inactive

Dear all, I need the recorded test outcome for `O=C(Nc1ccc(Cl)cc1)OCCOCCOC(=O)Nc1ccc(Cl)cc1` , thank you.
true (1)

Dear all, I need the recorded test outcome for `Clc1ccc(/C=N\Nc2c3ccccc3nc3ccccc23)cc1Cl` , thank you.
true (1)

Dear all, I need the recorded test outcome for `O=C1C=CCCCC1(c1ccccc1)c1ccccc1` , thank you.
true (1)

Dear all, I need the recorded test outcome for `COC(=O)c1ccc([N+](=O)[O-])o1` , thank you.
true (1)

* * *

assay: NCI Yeast Anticancer Drug Screen. Data for the sgs1 mgt1 strain (AID 161);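 further: 0% = growth of cultures given vehicle only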; conditions: S. cerevisiae sgs1 mgt1 strain, at 50.0 µM (retest, dose inferred, filed as 5.0), stronger effect = higher value
Compounds without any hit were thinned out: in the full panel of roughly 79,000, 15% have a hit.
Value Type: growth inhibition (%)
Numeric only. Scale: %

Solved cases (6 shown):
Look up growth inhibition for this molecule: `CN(C)CCCNc1c2ccccc2nc2ccc(F)cc12`
24

Look up growth inhibition for this molecule: CC(c1ccccc1)C(C(=O)O)(c1ccccc1)c1ccccc1 (stereo not given)
26

Look up growth inhibition for this molecule: `CCCCN(C)N=Nc1c(C(N)=O)n[nH]c1C(C)C`
52

Look up growth inhibition for this molecule: `CC1=C(C(=O)Nc2ccc(Cl)c(Cl)c2)C(c2ccco2)C(C(=O)Nc2ccc(Cl)c(Cl)c2)=C(C)N1`
-4

Look up growth inhibition for this molecule: `CCOc1ccc(C(OC)OC)cc1[N+](=O)[O-]`
-7

Look up growth inhibition for this molecule: `CCCCNc1cccc2ncccc12`
58

More entries:
Look up growth inhibition for this molecule: `CCOC(=O)CSC(=S)Nc1ccc(Cl)cc1`
95

Look up growth inhibition for this molecule: `CCCCCCCCCCCCCCCCN1CCSCC1`
99

* * *

experiment: NCI Yeast Anticancer Drug Screen. Data for the sgs1 mgt1 strain (AID 161);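 further: 0% = growth of cultures given vehicle only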; settings: S. cerevisiae sgs1 mgt1 strain, at 5.0 µM (retest, dose inferred, filed as 0.5), stronger effect = higher value
Compounds without any hit were thinned out: in the full panel of roughly 79,000, 15% have a hit.
Value Type: growth inhibition (%)
Numeric only. Scale: %

Look up growth inhibition for this compound: CC(=O)OC1CCC2(C)C(CCC3C2CCC2(C)C4CCC32OC(=O)C4CC(=O)O)C1 (stereo not drawn)
-12

Look up growth inhibition for this compound: Nc1ncnc2c1ncn2C1OCC(O)C1O (stereo not drawn)
20

Look up growth inhibition for this compound: `CCCC/C(=C\c1cc(Cl)c(O)c(Cl)c1)C(=O)O`
2

Look up growth inhibition for this compound: `NNc1ccccc1[N+](=O)[O-]`
-2

Look up growth inhibition for this compound: `Cc1nn(CCO)c(=O)c(C#N)c1C`
2

More entries:
Look up growth inhibition for this compound: `CN1C(Cl)=NS(=O)(=O)c2ccccc21`
9

Look up growth inhibition for this compound: `CCSC(=Nc1nc2ccc(NC(C)=O)cc2s1)SCC`
-1

Look up growth inhibition for this compound: `Nc1ccc(Oc2ccccc2)cc1`
-9

Look up growth inhibition for this compound: O=C(O)C1C2CC3CC(C2)CC1C3 (stereo not drawn)
7

Look up growth inhibition for this compound: `Cc1cc(I)ccc1NC(=S)Nc1ccccc1F`
-3

Look up growth inhibition for this compound: `CCOC(=O)c1ccc(C(C)C)cc1`
3

Look up growth inhibition for this compound: CC1OC(Oc2c(-c3ccc(O)c(O)c3O)oc3cc(O)ccc3c2=O)C(O)C(O)C1O (stereo not drawn)
-5

Look up growth inhibition for this compound: `CC(=O)Oc1cc(Cl)ccc1Cc1ccc(Cl)cc1OC(C)=O`
0

Look up growth inhibition for this compound: O=C(OC1C2CCC2C2CC21)c1ccc([N+](=O)[O-])cc1[N+](=O)[O-] (stereo not drawn)
24

Look up growth inhibition for this compound: `Cc1nc(C)c(C(=O)NNC(=O)C[N+](C)(C)C)cc1C(=O)NNC(=O)C[N+](C)(C)C`
-36

Look up growth inhibition for this compound: `NC(N)=NC(N)=Nc1ccc(-c2ccccc2)cc1`
2

Look up growth inhibition for this compound: CCCCCCCCN(CCCCCCCC)CC(O)c1cc(-c2ccc(Cl)cc2)nc2c(Cl)cccc12 (stereo not drawn)
-3

Look up growth inhibition for this compound: `CCN=C(N)Nc1nc(-c2ccc(Cl)cc2)cs1`
8

Look up growth inhibition for this compound: `C/C(=N\NC(=S)NNC(=S)N1CCCc2ccccc21)c1ccccn1`
30

Look up growth inhibition for this compound: `O=C(CCCO)N/N=C\c1ccc([N+](=O)[O-])s1`
8

Look up growth inhibition for this compound: `C/C(=N\NC(=S)NCCCNC(=S)N/N=C(\C)c1ccccn1)c1ccccn1`
10

Look up growth inhibition for this compound: COc1ccc(C2=Nc3cc(C)c(C)cc3NC(c3ccccc3)C2)cc1 (stereo not drawn)
21

Look up growth inhibition for this compound: CC(=O)OCC1CC2OC2CC1C (stereo not drawn)
15

Look up growth inhibition for this compound: Cc1cc2c(cc1S(=O)(=O)O)C1C(C3C2C2(Cl)C(Cl)=C(Cl)C3(Cl)C2(Cl)Cl)C2(Cl)C(Cl)=C(Cl)C1(Cl)C2(Cl)Cl (stereo not drawn)
27
